Assay: Primary redox qHTS assay for identification of artifact compounds. (AID 1845223);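 further: 0% = DMSO and 100% = reference compound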
Details: Amplex Red/HRP redox cycling with DTT, fluorescence; series mostly up to 53.8 µM
Inconclusive results are not listed. Calls of active or inactive are those of the source. The call rests on the fitted dose curve; in most records, active means well fitted activation curve with a large enough effect; inconclusive means small, poorly fitted or top-dose-only effect; inactive means flat fitted curve, though single readings scatter.
property: redox activity (% of DA3003)

Solved entries (count: 6):
Any idea what its redox activity (% of DA3003) is? The molecule is `COc1cc(C(=O)NCC2(N(C)C)CCCC2)cc(OC)c1OCc1ccccc1`
inactive

Param item: `Cc1ccc(F)cc1S(=O)(=O)N[C@@H]1CCN(Cc2ccc(OC(C)C)cc2)C1`
inactive

And for `C[C@H](Nc1ncnc2nc[nH]c12)c1cc2cccc(Cl)c2c(=O)n1-c1ccccc1` ?
inactive

// next record `N#Cc1cc(CN2CCC(Nc3ncnc4sc(Cl)cc34)CC2)ccc1F`
inactive

`O=C(Nc1ccn(Cc2ccc(O)cc2C(F)(F)F)n1)c1c(F)cccc1F` , same question.
inactive

Next molecule: C=C1CC[C@@H](O)[C@]2(C)C[C@H]3OC(=O)C(=C)[C@H]3CC12 (stereo not given in full)
inactive

Continuing:
Consider the molecule `O=C(COc1ccc(C(=O)c2ccccc2)cc1)NC1CCN(Cc2ccccc2)CC1` and give its measured redox activity (% of DA3003).
inactive

Okay, and COC1C(OC(=O)/C=C/C=C/C=C/C=C/C(=O)O)CCC2(CO2)C1C1(C)OC1CC=C(C)C (stereo not given) ?
inactive

Further, for CC1=C(C(=O)Nc2cc(Cl)ccc2Cl)C(c2ccco2)C2=C(CCCC2=O)N1 (stereo not given) ?
inactive

Consider next the molecule `CC1=C(c2ccc(NC(=O)c3c(F)cccc3F)cc2)CN(c2nccs2)CC1` in the same way.
inactive

* * *

Test system: HeLa
Test: Primary qHTS to identify gynecologic anti-cancer compounds using libraries of approved drugs and bioactive compounds (AID 1345084); further: on the % scale 0 is the no-effect control and ±100 the full control effect; nearly all actives have a fitted effect of over 55% in size
Details: Gynecologic cancer cell panel viability, ATPlite luminescence, 48 h; series mostly up to 57.5 µM
From the text: National Center for Advancing Translational Sciences [NCATS] Assay Overview: Chemotherapeutic drug responses vary from cancer to cancer and from patient to patient. […] ATPlite is a luminescence based assay reliant on the conversion of a luciferase substrate to light in the presence of ATP. As a cytotoxic compound will suppress growth and decrease the number of cells, the concentration of ATP will decrease, and less light signal will be detected in the well. […]
Inconclusive results are not listed. Calls of active or inactive are those of the source. Calls follow the shape of the dose curve; as a rule, active = well fitted cell-killing curve with a large enough effect; inconclusive = small, poorly fitted or top-dose-only effect, or effect the other way; inactive = flat fitted curve, though single readings scatter. Where a SMILES comes first, the peptide text is derived from it. [ ]: non-standard residue; d: D form. Hyp = O=C(O)[CH]1C[CH](O)CN1; Phe(ol) = N[CH](CO)Cc1ccccc1; Iva = CC[C](C)(N)C(=O)O; Aib = CC(C)(N)C(=O)O
property: activity change, negative = cytotoxicity

Returns the measured activity change, negative = cytotoxicity for the input compound. Input: CC(=O)O[C@@H]1[C@H](O[C@@H]2O[C@@H](CO)[C@H](O)[C@H]2O)[C@@H](O[C@@H]2O[C@@H](C)[C@H](O[C@@H]3OC[C@@H](O)[C@H](O)[C@H]3O)[C@@H](O)[C@H]2O)[C@H](OC(=O)[C@]23CCC(C)(C)C[C@H]2C2=CCC4[C@@]5(C)CC[C@H](O[C@@H]6O[C@H](C(=O)O)[C@@H](O)[C@H](O)[C@H]6O[C@@H]6O[C@H](CO)[C@H](O)[C@H](O)[C@H]6O)[C@@](C)(C=O)C5CC[C@@]4(C)[C@]2(C)C[C@H]3O)O[C@@H]1C (stereo partly drawn)
10% [at 6.55 µM] (inactive)

Request: CC1OC(OC2C(O)COC(O[C@@H]3[C@@H](O)[C@@H](O)[C@H](OC4C(OC(=O)[C@]56CCC(C)(C)CC5C5=CCC7[C@@]8(C)C[C@H](O)[C@H](OC9OC(CO)C(O)C(O)C9O)[C@@](C)(CO)C8[C@H](O)C[C@@]7(C)[C@]5(C)CC6)OCC(O)C4O)O[C@H]3C)C2O)C(O)C(O)C1O (stereo partly drawn)
-4.81% [at 6.55 µM] (inactive)

Now this one: CC(CCC1(O)OC2CC3C4CC=C5CC(O[C@@H]6O[C@H](CO)[C@@H](O[C@@H]7O[C@@H](C)[C@H](O)[C@@H](O)[C@H]7O)[C@H](O)[C@H]6O[C@@H]6O[C@@H](C)[C@H](O)[C@@H](O)[C@H]6O)CCC5(C)C4CCC3(C)C2C1C)CO[C@@H]1O[C@H](CO)[C@@H](O)[C@H](O)[C@H]1O (stereo partly drawn)
-7.05% [at 11.6 µM] (inactive)

Do the same for CC1(C)CC[C@]23CO[C@@]4(CCC5[C@@]6(C)CC[C@H](O[C@@H]7OC[C@H](O[C@@H]8O[C@H](CO)[C@@H](O)[C@H](O)[C@H]8O[C@@H]8OC[C@@H](O)[C@H](O)[C@H]8O)[C@H](O)[C@H]7O)[C@@](C)(CO)C6CC[C@@]5(C)[C@]4(C)CC2=O)[C@@H]3C1 (stereo partly drawn) please
16.9% [at 11.6 µM] (inactive)

Try CC(=O)O[C@H]1CC(C)(C)CC2[C@]13CO[C@@]21CCC2[C@@]4(C)CC[C@H](O[C@@H]5OC[C@H](O[C@@H]6O[C@H](CO)[C@@H](O)[C@H](O)[C@H]6O[C@@H]6OC[C@@H](O)[C@H](O)[C@H]6O)[C@H](O)[C@H]5O[C@@H]5O[C@H](CO)[C@@H](O)[C@H](O)[C@H]5O)[C@@](C)(CO)C4CC[C@@]2(C)[C@]1(C)C[C@H]3O (stereo partly drawn) next.
-3.76% [at 11.6 µM] (inactive)

Further, for CCC(C)(NC(=O)C(CCC(N)=O)NC(=O)C1CC(O)CN1C(=O)C(C)(C)NC(=O)C(C)(C)NC(=O)C(CC(C)C)NC(=O)CNC(=O)C(NC(=O)C(C)(C)NC(=O)C(C)(C)NC(=O)C(C)(C)NC(=O)C(Cc1ccccc1)NC(C)=O)C(C)C)C(=O)N1CC(O)CC1C(=O)NC(C)(C)C(=O)NC(CO)Cc1ccccc1 (stereo not drawn) (Ac-F[Aib][Aib][Aib]VGL[Aib][Aib][Hyp]Q[Iva][Hyp][Aib][Phe(ol)]; configuration not given here) ?
-3.33% [at 6.55 µM] (inactive)

// same read-out, input: C[C@H]1CC[C@@]2(OC1)O[C@H]1CC3[C@@H]4CC[C@@H]5C[C@@H](O[C@@H]6O[C@H](CO)[C@@H](O[C@@H]7O[C@H](CO[C@@H]8OC[C@@H](O)[C@H](O)[C@H]8O)[C@@H](O[C@@H]8O[C@H](CO)[C@H](O)[C@H](O)[C@H]8O)[C@H](O)[C@H]7O)[C@H](O)[C@H]6O)CC[C@]5(C)C4CC[C@]3(C)[C@H]1[C@@H]2C (stereo partly drawn)
17.3% [at 11.6 µM] (inactive)

And then C/C=C(/C)C(=O)OC1CC(C)(C)CC2C3=CCC4C5(C)CCC(O[C@@H]6O[C@H](C(=O)O)[C@@H](O)[C@H](O)[C@H]6O[C@@H]6O[C@H](CO)[C@H](O)[C@H](O[C@@H]7OC[C@H](O)[C@H](O)[C@H]7O[C@@H]7O[C@H](CO)[C@@H](O)[C@H](O)[C@H]7O)[C@H]6O)C(C)(C)C5CCC4(C)C3(C)C(O)C(O)C12CO (stereo partly drawn) , what is it?
-5.95% [at 6.55 µM] (inactive)

How about this compound: CCC(C)C(=O)O[C@H]1[C@H](O)[C@@]2(COC(C)=O)C(CC1(C)C)C1=CCC3[C@@]4(C)CC[C@H](O[C@@H]5O[C@H](C(=O)O)[C@@H](O)[C@H](O)[C@H]5O)[C@@](C)(CO)C4CC[C@@]3(C)[C@]1(C)C[C@@H]2O (stereo partly drawn)
8.08% [at 11.6 µM] (inactive)

Try this compound too: C=CC(C)(O)CC/C=C(\C)C(=O)OC1C(O)C(CO)OC(OC(=O)C23CCC(C)(C)CC2C2=CCC4C5(C)CCC(OC6OC(COC7OCC(OC(C)=O)C(O)C7OC7OC(COC(C)=O)C(O)C(O)C7OC(C)=O)C(O)C(O)C6OC6OCC(O)C(O)C6O)C(C)(C)C5CCC4(C)C2(C)C(O)C3O)C1OC1OCC(OC2OCC(O)C(OC3OCC(O)C(O)C3O)C2O)C(O)C1O (stereo not drawn)
-14% [at 6.55 µM] (inactive)

Please answer likewise for C/C=C(/C)C(=O)O[C@H]1[C@H](OC(=O)/C(C)=C\C)[C@@]23C(CC1(C)C)[C@]1(CCC4[C@@]5(C)CC[C@H](O[C@@H]6O[C@H](C(=O)O)[C@@H](O)[C@H](O[C@@H]7O[C@H](CO)[C@H](O)[C@H](O)[C@H]7O[C@@H]7O[C@@H](C)[C@H](O)[C@@H](O)[C@H]7O[C@@H]7OC[C@@H](O)[C@H](O)[C@H]7O)[C@H]6O[C@@H]6O[C@H](CO)[C@H](O)[C@H](O)[C@H]6O)C(C)(C)C5CC[C@@]4(C)[C@]1(C)C[C@H]2O)O[C@H]3O (stereo partly drawn)
16.8% [at 6.55 µM] (inactive)

Next compound: CC1(C)CCC2(C(=O)OC3OC(COC4OC(CO)C(O)C(O)C4O)C(O)C(O)C3O)CCC3(C)C(=CCC4C5(C)CCC(OC6OCC(O)C(O)C6O)C(C)(C)C5CCC43C)C2C1O (stereo not drawn)
20.6% [at 11.6 µM] (inactive)

Next record, please: COC1C(O)C(OC2CCC3(C)C(CCC45CCC6C7(COC(=O)C7)OC4(O)C6(C)CCC35)C2)OC(C)C1OC1OC(CO)C(OC2OC(CO)C(O)C(O)C2O)C(O)C1O (stereo not drawn)
-19.8% [at 11.6 µM] (inactive)
